Cited source for all entries: paper PMC6271887

Here the recorded CC50 at 48 h is given for each entry.
Experiment: Cytotoxicity against mammalian cells (MTT)
Format: cell-based
Details: mouse, CC50 CI95% NCTC
Note: unit µg/mL is implicit; provide only the numeric part.

These solved cases illustrate the format of a correct answer.
Compound: C/C(=C/CCC(C)[C@@H]1CC[C@]2(C)C3=CCC4C(C)(C)C(O)CC[C@]4(C)C3CC[C@@]12C)C(=O)O (stereo partly drawn)
CC50 at 48 h / µg/mL: 69.5

Compound: CC(=O)OC1CC[C@]2(C)C3CC[C@@]4(C)[C@H](C(C)CC/C=C(\C)C(=O)O)CC[C@]4(C)C3=CCC2C1(C)C (stereo partly drawn)
CC50 at 48 h / µg/mL: 69.3

Consider the additional compound presented here.
[in] Requested read-out: CC50 at 48 h. Entry: CC(CCCC(C)[C@@H]1CC[C@]2(C)C3=CCC4C(C)(C)C(O)CC[C@]4(C)C3CC[C@@]12C)C(=O)O (stereo partly drawn) [Compound 1b, 3ξ-Hydroxytirucall-7-en-27-oic acid]
[out] 76.4

* * *

Experiment: Cytotoxicity against mammalian cells (MTT)
Type: cell-based
Settings: mouse, CC50 CI95% NCTC
Here the recorded CC50 at 48 h is given for each entry.

These solved cases illustrate the format of a correct answer.
Compound: C/C(=C\CCC(C)[C@@H]1CC[C@]2(C)C3=CCC4C(C)(C)C(O)CC[C@]4(C)C3CC[C@@]12C)C(=O)O (stereo partly drawn)
CC50 at 48 h: 95.5 µg/mL
//
Compound: CC(=O)OC1CC[C@]2(C)C3CC[C@@]4(C)[C@H](C(C)CCCC(C)C(=O)O)CC[C@]4(C)C3=CCC2C1(C)C (stereo partly drawn)
CC50 at 48 h: 57.8 µg/mL
//
Compound: CC(CCCC(C)[C@@H]1CC[C@]2(C)C3=CCC4C(C)(C)C(=O)CC[C@]4(C)C3CC[C@@]12C)C(=O)O (stereo partly drawn)
CC50 at 48 h: > 200 µg/mL
//
Compound: COC(=O)/C(C)=C\CCC(C)[C@@H]1CC[C@]2(C)C3=CCC4C(C)(C)[C@H](O)CC[C@]4(C)C3CC[C@@]12C (stereo partly drawn)
CC50 at 48 h: > 200 µg/mL
//
Compound: C/C(=C/CCC(C)[C@@H]1CC[C@]2(C)C3=CCC4C(C)(C)[C@H](O)CC[C@]4(C)C3CC[C@@]12C)C(=O)O (stereo partly drawn)
CC50 at 48 h: 69 µg/mL

Consider the additional compound presented here.
[in] Requested read-out: CC50 at 48 h. Entry: COC(=O)/C(C)=C\CCC(C)[C@@H]1CC[C@]2(C)C3=CCC4C(C)(C)[C@H](OC(C)=O)CC[C@]4(C)C3CC[C@@]12C (stereo partly drawn)
[out] > 200 µg/mL

* * *

Assay: Cytotoxicity against mammalian cells (MTT)
Type: cell-based
Details: mouse, NCTC clone 929 cells, NCTC clone 929, 48 h, highest concentration 200 μg/mL; read-out: CC50 CI95% NCTC
Here the recorded CC50 at 48 h is given for each entry.
Note: unit µg/mL is implicit; provide only the numeric part.

Compound: CCCCCCCCCCCCCCCCOP(=O)([O-])OCC[N+](C)(C)C [miltefosine, reference compound]
Unit annotation: µg/mL
CC50 at 48 h: 49.7

Consider the additional compound presented here.
[in] Requested read-out: CC50 at 48 h. Entry: C/C(=C\CCC(C)[C@@H]1CC[C@]2(C)C3=CCC4C(C)(C)C(=O)CC[C@]4(C)C3CC[C@@]12C)C(=O)O (stereo partly shown) [Compound 2, 3-Oxotirucalla-7,24E-dien-27-oic acid]
[out] 96
